- Test system: mouse carcinogenicity bioassay, TD50 from CPDB
- Protocol: DSSTox (CPDBAS) Carcinogenic Potency Database Summary Mouse Bioassay Results
- Condition Info: TD50_Mouse_Note: TD50 is harmonic mean of more than one positive test; no positive results are statistically significant; TargetSites_Mouse_Female: no positive results
Measurement Kind: Potency

Data request: Which Potency value is on record for `COc1ccc(O)c(C(C)(C)C)c1` ?
Data returned: 30.7 mmol/kg/day

----------
- Tested on: mouse carcinogenicity bioassay, TD50 from CPDB
- Protocol: DSSTox (CPDBAS) Carcinogenic Potency Database Summary Mouse Bioassay Results
- Condition Info: TD50_Mouse_Note: TD50 is harmonic mean of more than one positive test; TargetSites_Mouse_Female: esophagus; stomach
Measurement Kind: Potency

Data request: Form field: Potency recorded for `O=[N+]([O-])c1ccc(-c2cnc3ccccn23)o1` with mouse carcinogenicity bioassay, TD50 from CPDB (enter value)
Data returned: 0.118 mmol/kg/day

----------
- Tested on: mouse carcinogenicity bioassay, TD50 from CPDB
- Protocol: DSSTox (CPDBAS) Carcinogenic Potency Database Summary Mouse Bioassay Results
- Condition Info: TD50_Mouse_Note: TD50 is harmonic mean of more than one positive test; TargetSites_Mouse_Female: harderian gland; pituitary gland; vascular system
Measurement Kind: Potency

Data request: Which Potency value is on record for `C=CC(=C)C` ?
Data returned: 4.02 mmol/kg/day

----------
Could you please report measured Potency for the items listed next?
- System: mouse carcinogenicity bioassay, TD50 from CPDB
- Protocol: DSSTox (CPDBAS) Carcinogenic Potency Database Summary Mouse Bioassay Results
- Condition Info: TargetSites_Mouse_Female: no positive results

COc1c(Cl)c(Cl)c(Cl)c(Cl)c1Cl ... 0.243 mmol/kg/day
CC(COc1ccc(C(C)(C)C)cc1)OS(=O)OCCCl (stereo unspecified) ... 0.472 mmol/kg/day
Nc1ccc(-c2ccc(N)c(N)c2)cc1N ... 0.8 mmol/kg/day

Record Potency for all entries; do not skip any.
1. N[C@@H](CCC(=O)NNc1ccc(C(=O)O)cc1)C(=O)O
2. CCCCC1C(=O)N(c2ccccc2)N(c2ccccc2)C1=O
3. CCN(CC)C(=S)S[Se](SC(=S)N(CC)CC)(SC(=S)N(CC)CC)SC(=S)N(CC)CC

Data returned:
1: 0.985 mmol/kg/day; 2: 1.14 mmol/kg/day; 3: 0.00222 mmol/kg/day

----------
Could you please report measured Potency for the items listed next?
- Test system: mouse carcinogenicity bioassay, TD50 from CPDB
- Protocol: DSSTox (CPDBAS) Carcinogenic Potency Database Summary Mouse Bioassay Results
- Condition Info: TD50_Mouse_Note: TD50 is harmonic mean of more than one positive test; TargetSites_Mouse_Female: liver; thyroid gland

Nc1ccc(Sc2ccc(N)cc2)cc1 ... 0.153 mmol/kg/day
Clc1cc2c(cc1Cl)Oc1cc(Cl)c(Cl)cc1O2 ... 4.85e-07 mmol/kg/day
O=C1Nc2ccc(Cl)cc2C(c2ccccc2)=NC1O (centres undefined) ... 0.125 mmol/kg/day

Data request: Which Potency value is on record for CN(C)CCOC(C)(c1ccccc1)c1ccccn1 (centres undefined) ?
Data returned: 0.538 mmol/kg/day

----------
- System: mouse carcinogenicity bioassay, TD50 from CPDB
- Protocol: DSSTox (CPDBAS) Carcinogenic Potency Database Summary Mouse Bioassay Results
- Condition Info: TD50_Mouse_Note: no positive results are statistically significant
- Source text: The Carcinogenic Potency Database (CPDB) is a unique and widely used international resource of the results of over 6500 chronic, long-term animal cancer tests on over 1500 chemical substances. The CPDB provides easy access to the bioassay literature, with qualitative and quantitative analyses of both positive and negative experiments that have been published over the past 50 years in the general literature and by the National Cancer Institute/National Toxicology Program. […]
Measurement Kind: Potency

Data request: Which Potency value is on record for `Nc1ccc(-c2ccc(N)c(O)c2)cc1O` ?
Data returned: 1.22 mmol/kg/day
